Target: Protein cereblon/Nuclear receptor coactivator 3 (Homo sapiens, UniProt Q9Y6Q9+Q96SW2)
Sequence (Q96SW2 whole entry partner): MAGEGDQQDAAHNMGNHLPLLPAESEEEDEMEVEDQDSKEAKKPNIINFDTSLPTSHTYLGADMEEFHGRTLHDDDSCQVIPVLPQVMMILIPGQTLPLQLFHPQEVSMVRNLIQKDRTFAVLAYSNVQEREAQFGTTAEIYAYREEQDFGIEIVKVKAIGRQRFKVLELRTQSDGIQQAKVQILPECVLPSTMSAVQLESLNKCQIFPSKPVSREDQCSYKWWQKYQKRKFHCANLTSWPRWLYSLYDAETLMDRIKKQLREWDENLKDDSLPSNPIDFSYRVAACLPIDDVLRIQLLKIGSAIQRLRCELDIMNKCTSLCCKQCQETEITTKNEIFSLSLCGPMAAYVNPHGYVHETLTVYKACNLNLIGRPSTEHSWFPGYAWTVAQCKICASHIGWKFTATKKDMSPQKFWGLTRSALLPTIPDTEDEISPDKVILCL
Sequence (Q9Y6Q9 2-1424 limits assumed): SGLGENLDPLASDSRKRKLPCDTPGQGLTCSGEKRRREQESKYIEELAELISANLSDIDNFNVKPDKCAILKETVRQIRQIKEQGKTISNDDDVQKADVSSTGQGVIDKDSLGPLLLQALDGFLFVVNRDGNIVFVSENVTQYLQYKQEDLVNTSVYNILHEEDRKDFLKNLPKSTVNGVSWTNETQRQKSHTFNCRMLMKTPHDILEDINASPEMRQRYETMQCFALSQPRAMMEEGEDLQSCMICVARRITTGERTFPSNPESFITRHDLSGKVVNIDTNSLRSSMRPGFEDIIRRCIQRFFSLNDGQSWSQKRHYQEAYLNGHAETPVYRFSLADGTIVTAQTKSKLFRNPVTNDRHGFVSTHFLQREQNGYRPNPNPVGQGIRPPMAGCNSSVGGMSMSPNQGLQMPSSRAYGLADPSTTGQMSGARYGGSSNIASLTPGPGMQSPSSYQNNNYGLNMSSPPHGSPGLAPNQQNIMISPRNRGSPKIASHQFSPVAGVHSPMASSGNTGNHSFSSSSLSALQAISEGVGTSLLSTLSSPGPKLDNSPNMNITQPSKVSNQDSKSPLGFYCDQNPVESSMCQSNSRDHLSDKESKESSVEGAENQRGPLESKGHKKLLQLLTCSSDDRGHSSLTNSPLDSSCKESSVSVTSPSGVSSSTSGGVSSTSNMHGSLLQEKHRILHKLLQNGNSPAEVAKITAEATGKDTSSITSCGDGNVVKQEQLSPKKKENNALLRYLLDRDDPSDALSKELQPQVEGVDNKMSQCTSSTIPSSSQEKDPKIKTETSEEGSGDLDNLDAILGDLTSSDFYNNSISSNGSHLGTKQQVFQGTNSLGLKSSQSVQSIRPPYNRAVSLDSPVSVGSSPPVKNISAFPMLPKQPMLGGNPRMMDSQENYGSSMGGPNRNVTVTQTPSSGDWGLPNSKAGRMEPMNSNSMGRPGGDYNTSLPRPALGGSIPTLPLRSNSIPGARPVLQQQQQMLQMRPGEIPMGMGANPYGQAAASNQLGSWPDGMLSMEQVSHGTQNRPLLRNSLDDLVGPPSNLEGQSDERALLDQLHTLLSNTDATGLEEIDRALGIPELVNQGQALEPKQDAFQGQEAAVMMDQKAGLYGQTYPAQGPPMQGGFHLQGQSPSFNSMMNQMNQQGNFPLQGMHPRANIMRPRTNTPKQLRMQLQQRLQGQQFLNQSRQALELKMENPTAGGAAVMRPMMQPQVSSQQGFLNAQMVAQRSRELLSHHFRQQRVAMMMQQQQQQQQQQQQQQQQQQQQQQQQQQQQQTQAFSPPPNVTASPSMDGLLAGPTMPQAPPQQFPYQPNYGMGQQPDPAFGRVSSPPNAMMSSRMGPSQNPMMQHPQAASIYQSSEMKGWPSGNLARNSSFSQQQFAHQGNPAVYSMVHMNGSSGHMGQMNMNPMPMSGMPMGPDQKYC
Assay: PROTAC activity at CRBN/SRC-3 in human MCF7 cells assessed as induction of SRC-3 degradation at 1 uM incubated for 24 hrs by immunoblot analysis relative to control
Type: cell-based
Parameter: Activity. Scope: all listed entries.

| compound | Activity |
| --- | --- |
| C/C(=N\Nc1nc2ccccc2n1CCNC(=O)C1CC2(CCN(c3ccc4c(c3)C(=O)N(C3CCC(=O)NC3=O)C4=O)CC2)C1)c1ccccn1 (configuration not stated) | 5% |
| C/C(=N\Nc1nc2ccccc2n1CCNC(=O)CN1CCC(CN2CCN(c3ccc4c(c3)C(=O)N(C3CCC(=O)NC3=O)C4=O)CC2)CC1)c1ccccn1 (configuration not stated) | 23% |
| C/C(=N\Nc1nc2ccccc2n1C1CN(c2ccc3c(c2)C(=O)N(C2CCC(=O)NC2=O)C3=O)C1)c1ccccn1 (configuration not stated) | 10% |
| C/C(=N\Nc1nc2ccccc2n1C1CN(c2cccc3c2C(=O)N(C2CCC(=O)NC2=O)C3=O)C1)c1ccccn1 (configuration not stated) | 17% |
| C/C(=N\Nc1nc2ccccc2n1C1CN(C(=O)C2CCN(c3cccc4c3C(=O)N(C3CCC(=O)NC3=O)C4=O)CC2)C1)c1ccccn1 (configuration not stated) | 29% |
| C/C(=N\Nc1nc2ccccc2n1CC1CCN(c2ccc3c(c2)C(=O)N(C2CCC(=O)NC2=O)C3=O)CC1)c1ccccn1 (configuration not stated) | 28% |

---

Assay: Half life in Balb/c mouse at 2 mg/kg, iv by LC-MS/MS analysis
Assay type: ADME, organism-based
Conditions: in vivo

| compound | half-life |
| --- | --- |
| C/C(=N\Nc1nc2ccccc2n1C1CN(C2CCN(c3cccc4c3C(=O)N(C3CCC(=O)NC3=O)C4=O)CC2)C1)c1ccccn1 (stereo unspecified) | 3.44 h |

---

Test: Oral bioavailability in Balb/c mouse at 20 mg/kg by LC-MS/MS analysis
Type: ADME, organism-based
Settings: in vivo

| compound | bioavailability (%) |
| --- | --- |
| C/C(=N\Nc1nc2ccccc2n1C1CN(C2CCN(c3cccc4c3C(=O)N(C3CCC(=O)NC3=O)C4=O)CC2)C1)c1ccccn1 (stereo unspecified) | 1 |

---

Assay: AUC(0 to infinity) in Balb/c mouse at 2 mg/kg, iv by LC-MS/MS analysis
Type: ADME, organism-based
Settings: in vivo

| compound | scaleUnit | AUC(0-inf) |
| --- | --- | --- |
| C/C(=N\Nc1nc2ccccc2n1C1CN(C2CCN(c3cccc4c3C(=O)N(C3CCC(=O)NC3=O)C4=O)CC2)C1)c1ccccn1 (stereo unspecified) | ng·h/mL | 367 |

---

Test: AUC (0 to t) in Balb/c mouse at 4 mg/kg, ip by LC-MS/MS analysis
Format: ADME, organism-based
Conditions: in vivo

| compound | AUC(0-t) / ng·h/mL |
| --- | --- |
| C/C(=N\Nc1nc2ccccc2n1C1CN(C2CCN(c3cccc4c3C(=O)N(C3CCC(=O)NC3=O)C4=O)CC2)C1)c1ccccn1 (stereo unspecified) | 49.1 |

---

Assay: AUC (0 to infinity) in Balb/c mouse at 20 mg/kg, po by LC-MS/MS analysis
Format: ADME, organism-based
Conditions: in vivo

| molecule | AUC(0-inf) [ng·h/mL] |
| --- | --- |
| C/C(=N\Nc1nc2ccccc2n1C1CN(C2CCN(c3cccc4c3C(=O)N(C3CCC(=O)NC3=O)C4=O)CC2)C1)c1ccccn1 (stereo unspecified) | 58.4 |

The origin of these recorded values is ChEMBL document CHEMBL6178017.
